Property: viability at 48 h, 100 µM; scope: individual compounds
assay: In vitro MTT cytotoxicity assay, A549; assay type: cell-based, human; details: human, A549 cells, read-out: Percent (%) cell viability at 100 μM, A549 cells
Record the value in %, omitting the unit from your answer.

The cases that follow already have their viability at 48 h, 100 µM on record.
Reported viability at 48 h, 100 µM, compound `O=C(O)c1cccc(NCc2ccc(-c3ccc(Cl)cc3)o2)c1` : ____
80

Reported viability at 48 h, 100 µM, compound `O=C(O)c1cccc(NCc2ccc(-c3cccc(Cl)c3)o2)c1` : ____
102

---
Reported viability at 48 h, 100 µM, compound `O=C(O)c1cccc(NCc2ccc(-c3ccccc3Cl)o2)c1` : ____
103
